Assay: in vivo
Details: female, Ncr nu/nu, mouse, iv, 6.7 mg/kg/dose
endpoint: MTD at 9 days

>>> result("CCC1=C[C@@H]2CN(C1)Cc1c([nH]c3ccccc13)[C@@](C(=O)OC)(c1cc3c(cc1OC)N(C)[C@H]1[C@@](O)(C(=O)OC)[C@H](OC(C)=O)[C@]4(CC)C=CCN5CC[C@]31[C@@H]54)C2 [Navelbine]")
"~6.7 mg/kg"
